Study Target: UniProt P10275
Assay Overview: Inhibition of AR transcriptional activity in AR-positive human 22Rv1 cells harboring ARE14 construct assessed as decrease in PSA protein expression at 5 uM after 24 hrs by immunoblot analysis
The source made the active and inactive calls. No cut-off for these calls is given here.
Would you mind answering with one of these outcomes? active, inactive

{"columns": ["Compound String", "Classification"],
 "data": [
  ["CC(=O)O[C@H]1CC[C@@]2(C)C(=CC[C@@H]3[C@@H]2CC[C@@]2(C)[C@H]3C[C@@H]3C(=O)[C@@]2(C)Nc2nc4ccccc4n23)C1", "inactive"],
  ["CC(=O)O[C@H]1CC[C@@]2(C)C(=CC[C@@H]3[C@@H]2CC[C@]2(C)c4c(C)nc5nc6ccccc6n5c4C[C@@H]32)C1", "inactive"],
  ["CC(=O)O[C@H]1CC[C@@]2(C)C(=CC[C@@H]3[C@@H]2CC[C@]2(C)c4c(C)nc5c(c4C[C@@H]32)c2ccccc2n5C)C1", "inactive"],
  ["CC(=O)O[C@H]1CC[C@@]2(C)C(=CC[C@@H]3[C@@H]2CC[C@]2(C)c4c(C)nc5nccn5c4C[C@@H]32)C1", "inactive"],
  ["CC(=O)O[C@H]1CC[C@@]2(C)C(=CC[C@H]3[C@@H]4C[C@@H](Nc5nc6ccccc6s5)[C@H](C(C)=O)[C@@]4(C)CC[C@@H]32)C1", "inactive"]
]}

In the following, a different compound is considered.
Any idea what this test logged for `COc1ccc2c(C)c3c(nc2n1)C[C@H]1[C@@H]2CC=C4C[C@@H](O)CC[C@]4(C)[C@H]2CC[C@]31C` ?
active

###

Study Target: Androgen receptor (Homo sapiens, UniProt P10275)
Sequence (P10275 whole entry): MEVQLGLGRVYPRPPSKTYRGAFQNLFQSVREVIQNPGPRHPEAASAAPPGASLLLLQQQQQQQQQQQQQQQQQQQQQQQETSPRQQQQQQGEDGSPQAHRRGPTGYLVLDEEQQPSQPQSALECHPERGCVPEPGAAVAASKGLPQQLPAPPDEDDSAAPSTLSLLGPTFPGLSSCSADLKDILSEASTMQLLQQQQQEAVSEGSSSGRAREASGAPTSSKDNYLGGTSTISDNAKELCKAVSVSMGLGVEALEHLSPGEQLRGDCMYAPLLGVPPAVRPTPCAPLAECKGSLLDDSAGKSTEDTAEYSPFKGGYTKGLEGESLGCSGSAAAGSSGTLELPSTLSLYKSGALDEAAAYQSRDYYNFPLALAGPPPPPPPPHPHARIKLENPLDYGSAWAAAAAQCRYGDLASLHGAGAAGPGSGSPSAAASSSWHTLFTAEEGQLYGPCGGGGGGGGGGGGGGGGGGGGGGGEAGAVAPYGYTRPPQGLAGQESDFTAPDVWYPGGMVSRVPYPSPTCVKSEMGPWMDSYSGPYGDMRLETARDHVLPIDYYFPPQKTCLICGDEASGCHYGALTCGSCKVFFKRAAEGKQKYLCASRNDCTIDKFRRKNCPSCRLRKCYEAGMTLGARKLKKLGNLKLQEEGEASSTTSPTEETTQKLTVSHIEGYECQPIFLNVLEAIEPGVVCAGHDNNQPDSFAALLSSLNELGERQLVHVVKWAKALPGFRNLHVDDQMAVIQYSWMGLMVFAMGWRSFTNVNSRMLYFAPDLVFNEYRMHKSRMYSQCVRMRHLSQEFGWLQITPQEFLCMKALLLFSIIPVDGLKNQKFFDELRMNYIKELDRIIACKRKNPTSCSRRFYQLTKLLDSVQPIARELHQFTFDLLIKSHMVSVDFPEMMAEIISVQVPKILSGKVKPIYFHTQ
Assay Overview: Inhibition of R1881 induced-AR transcriptional activity in AR-positive human 22Rv1 cells harboring ARE14 construct after 24 hrs by luciferase assay
Endpoint: IC50 (nM)
Give your result in nM as a bare value.

Which IC50 is reported with Androgen receptor (Homo sapiens, UniProt P10275) for this entry: `CC(=O)O[C@H]1CC[C@@]2(C)C(=CC[C@@H]3[C@@H]2CC[C@]2(C)c4c(C)nc5[nH]c6ccccc6c5c4C[C@@H]32)C1` ?
315

###

GI50 values for the compounds below.
Tested on: BJ
Assay Overview: Antiproliferative activity against human BJ cells assessed as growth inhibition after 24 hrs by resazurin dye based fluorescence assay
Format: functional

Look over these answered cases.
{"columns": ["Compound String", "Test Result"],
 "data": [
  ["CC(=O)O[C@H]1CC[C@@]2(C)C(=CC[C@@H]3[C@@H]2CC[C@]2(C)c4c(C)nc5nc6cc(C)c(C)cc6n5c4C[C@@H]32)C1", "> 50 µM"],
  ["C[C@]12CC[C@H](O)CC1=CC[C@@H]1[C@@H]2CC[C@]2(C)/C(=N/n3cnc4ccccc43)CC[C@@H]12", "> 50 µM"],
  ["CC(=O)O[C@H]1CC[C@@]2(C)C(=CC[C@@H]3[C@@H]2CC[C@@]2(C)[C@H]3C[C@@H]3C(=O)[C@@]2(C)Nc2nc4ccccc4n23)C1", "> 50 µM"],
  ["CC(=O)O[C@H]1CC[C@@]2(C)C(=CC[C@@H]3[C@@H]2CC[C@]2(C)c4c(C)nc5[nH]c6ccccc6c5c4C[C@@H]32)C1", "> 50 µM"]
]}

Quick check: GI50 of `CC(=O)O[C@H]1CC[C@@]2(C)C(=CC[C@@H]3[C@@H]2CC[C@]2(C)c4c(C)nc5nc6ccccc6n5c4C[C@@H]32)C1` ?
44.9 µM

Quick check: GI50 of `CC(=O)O[C@H]1CC[C@@]2(C)C(=CC[C@@H]3[C@@H]2CC[C@]2(C)c4c(C)nc5nccn5c4C[C@@H]32)C1` ?
> 50 µM

Quick check: GI50 of `CC(=O)O[C@H]1CC[C@@]2(C)C(=CC[C@H]3[C@@H]4C[C@@H](Nc5nc6ccccc6[nH]5)[C@@H](C(C)=O)[C@@]4(C)CC[C@@H]32)C1` ?
48.3 µM

Quick check: GI50 of `CC(=O)O[C@H]1CC[C@@]2(C)C(=CC[C@@H]3[C@@H]2CC[C@]2(C)c4c(C)nc5nc6ccc(Cl)cc6n5c4C[C@@H]32)C1` ?
50 µM

Quick check: GI50 of `COc1ccc2c(C)c3c(nc2n1)C[C@H]1[C@@H]2CC=C4C[C@@H](O)CC[C@]4(C)[C@H]2CC[C@]31C` ?
> 50 µM

Quick check: GI50 of `CC(=O)O[C@H]1CC[C@@]2(C)C(=CC[C@H]3[C@@H]4C[C@@H](Nc5nc6ccccc6s5)[C@H](C(C)=O)[C@@]4(C)CC[C@@H]32)C1` ?
> 50 µM

Quick check: GI50 of `CC(=O)O[C@H]1CC[C@@]2(C)C(=CC[C@@H]3[C@@H]2CC[C@]2(C)c4c(C)nc5nc6cc(Cl)ccc6n5c4C[C@@H]32)C1` ?
> 50 µM

Quick check: GI50 of `CC(=O)O[C@H]1CC[C@@]2(C)C(=CC[C@@H]3[C@@H]2CC[C@]2(C)c4c(C)nc5c(c4C[C@@H]32)c2ccccc2n5C)C1` ?
> 50 µM

Quick check: GI50 of `CC(=O)O[C@H]1CC[C@@]2(C)C(=CC[C@@H]3[C@@H]2CC[C@@]2(C)[C@H]3C[C@@H]3C(=O)[C@@]2(C)Nc2nc4cc(C)c(C)cc4n23)C1` ?
> 50 µM

Quick check: GI50 of `Cc1nc(N2CCc3ccccc3C2)nc2c1[C@@]1(C)CC[C@H]3[C@@H](CC=C4C[C@@H](O)CC[C@@]43C)[C@@H]1C2` ?
22.5 µM
